total protein half-life in vivo by entry:
- TEST_DETAILS: total protein half-life in vivo (active degradation + dilution); higher = more stable protein
- CONDITION_SET: E. coli NCM3722 delta-smpB; growth: N-lim chemostat; doubling time 6 h
Express your answer in h, writing the number without its unit.

MACROMOLECULE_SEQUENCE | total protein half-life in vivo, h
MSTTWFVGADWLAEHIDDPEIQIIDARMASPGQEDRNVAQEYLNGHIPGAVFFDIEALSDHTSPLPHMLPRPETFAVAMRELGVNQDKHLIVYDEGNLFSAPRAWWMLRTFGVEKVSILGGGLAGWQRDDLLLEEGAVELPEGEFNAAFNPEAVVKVTDVLLASHENTAQIIDARPAARFNAEVDEPRPGLRRGHIPGALNVPWTELVREGELKTTDELDAIFFGRGVSYDKPIIVSCGSGVTAAVVLLALATLDVPNVKLYDGAWSEWGARADLPVEPVK | 3.69
MSKSLQKPTILNVETVARSRLFTVESVDLEFSNGVRRVYERMRPTNREAVMIVPIVDDHLILIREYAVGTESYELGFSKGLIDPGESVYEAANRELKEEVGFGANDLTFLKKLSMAPSYFSSKMNIVVAQDLYPESLEGDEPEPLPQVRWPLAHMMDLLEDPDFNEARNVSALFLVREWLKGQGRV | 3.4

Let us examine a further case.
Challenge: Would you mind telling me what total protein half-life in vivo value was observed for MLIIETLPLLRQQIRRLRMEGKRVALVPTMGNLHDGHMKLVDEAKARADVVVVSIFVNPMQFDRPEDLARYPRTLQEDCEKLNKRKVDLVFAPSVKEIYPNGTETHTYVDVPGLSTMLEGASRPGHFRGVSTIVSKLFNLVQPDIACFGEKDFQQLALIRKMVADMGFDIEIVGVPIMRAKDGLALSSRNGYLTAEQRKIAPGLYKVLSSIADKLQAGERDLDEIITIAGQELNEKGFRADDIQIRDADTLLEVSETSKRAVILVAAWLGDARLIDNKMVELA ?
Response given: 4.98

* * *

total protein half-life in vivo by entry:
- TEST_DETAILS: total protein half-life in vivo (active degradation + dilution); higher = more stable protein
- CONDITION_SET: E. coli NCM3722 delta-hslV; growth: N-lim chemostat; doubling time 6 h
Express your answer in h, writing the number without its unit.

Worked cases, total protein half-life in vivo given:
MACROMOLECULE_SEQUENCE | UNIT_NAME | total protein half-life in vivo
MKIAILSRDGTLYSCKRLREAAIQRGHLVEILDPLSCYMNINPAASSIHYKGRKLPHFDAVIPRIGTAITFYGTAALRQFEMLGSYPLNESVAIARARDKLRSMQLLARQGIDLPVTGIAHSPDDTSDLIDMVGGAPLVVKLVEGTQGIGVVLAETRQAAESVIDAFRGLNAHILVQEYIKEAQGCDIRCLVVGDEVVAAIERRAKEGDFRSNLHRGGAASVASITPQEREIAIKAARTMALDVAGVDILRANRGPLVMEVNASPGLEGIEKTTGIDIAGKMIRWIERHATTEYCLKTGG [P0C0U4] | h | 3.76
MRVLLAPMEGVLDSLVRELLTEVNDYDLCITEFVRVVDQLLPVKVFHRICPELQNASRTPSGTLVRVQLLGQFPQWLAENAARAVELGSWGVDLNCGCPSKTVNGSGGGATLLKDPELIYQGAKAMREAVPAHLPVSVKVRLGWDSGEKKFEIADAVQQAGATELVVHGRTKEQGYRAEHIDWQAIGDIRQRLNIPVIANGEIWDWQSAQQCMAISGCDAVMIGRGALNIPNLSRVVKYNEPRMPWPEVVALLQKYTRLEKQGDTGLYHVARIKQWLSYLRKEYDEATELFQHVRVLNNSPDIARAIQAIDIEKL | h | 4.92
MNKETQPIDRETLLKEANKIIREHEDTLAGIEATGVTQRNGVLVFTGDYFLDEQGLPTAKSTAVFNMFKHLAHVLSEKYHLVD [P0AB61] | h | 3.12
MLEILYQDEWLVAVNKPSGWLVHRSWLDRDEKVVVMQTVRDQIGQHVFTAHRLDRPTSGVLLMGLSSEAGRLLAQQFEQHQIQKRYHAIVRGWLMEEAVLDYPLVEELDKIADKFAREDKGPQPAVTHYRGLATVEMPVATGRYPTTRYGLVELEPKTGRKHQLRRHLAHLRHPIIGDSKHGDLRQNRSGAEHFGLQRLMLHASQLSLTHPFTGEPLTIHAGLDDTWMQALSQFGWRGLLPENERVEFSAPSGQDGEISS [P0AA41] | h | 4.87
MKKKILAFGLISALFCSTPAMADMNRTTKGALLGAGVGLLTGNGVNGVLKGAAVGAGVGAVTEKGRDGKNARKGAKVGAAVGAVTGVLTGNGLEGAIKGAVIGGTGGAILGKMK [Q7DFV3] | h | 1.46

Challenge: Would you mind telling me what total protein half-life in vivo value was observed for MERIVVTLGERSYPITIASGLFNEPASFLPLKSGEQVMLVTNETLAPLYLDKVRGVLEQAGVNVDSVILPDGEQYKSLAVLDTVFTALLQKPHGRDTTLVALGGGVVGDLTGFAAASYQRGVRFIQVPTTLLSQVDSSVGGKTAVNHPLGKNMIGAFYQPASVVVDLDCLKTLPPRELASGLAEVIKYGIILDGAFFNWLEENLDALLRLDGPAMAYCIRRCCELKAEVVAADERETGLRALLNLGHTFGHAIEAEMGYGNWLHGEAVAAGMVMAARTSERLGQFSSAETQRIITLLKRAGLPVNGPREMSAQAYLPHMLRDKKVLAGEMRLILPLAIGKSEVRSGVSHELVLNAIADCQSA ?
Response given: 3.46

* * *

total protein half-life in vivo by entry:
- TEST_DETAILS: total protein half-life in vivo (active degradation + dilution); higher = more stable protein
- CONDITION_SET: wild type E. coli NCM3722; growth: P-lim chemostat; doubling time 6 h
Express your answer in h, writing the number without its unit.

Worked cases, total protein half-life in vivo given:
MACROMOLECULE_SEQUENCE | total protein half-life in vivo [h]
MTVTRPRAERGAFPPGTEHYGRSLLGAPLIWFPAPAASRESGLILAGTHGDENSSVVTLSCALRTLTPSLRRHHVVLCVNPDGCQLGLRANANGVDLNRNFPAANWKEGETVYRWNSAAEERDVVLLTGDKPGSEPETQALCQLIHRIQPAWVVSFHDPLACIEDPRHSELGEWLAQAFELPLVTSVGYETPGSFGSWCADLNLHCITAEFPPISSDEASEKYLFAMANLLRWHPKDAIRPS [P0ACV6] | 4.71
MSEKLQKVLARAGHGSRREIESIIEAGRVSVDGKIAKLGDRVEVTPGLKIRIDGHLISVRESAEQICRVLAYYKPEGELCTRNDPEGRPTVFDRLPKLRGARWIAVGRLDVNTCGLLLFTTDGELANRLMHPSREVEREYAVRVFGQVDDAKLRDLSRGVQLEDGPAAFKTIKFSGGEGINQWYNVTLTEGRNREVRRLWEAVGVQVSRLIRVRYGDIPLPKGLPRGGWTELDLAQTNYLRELVELPPETSSKVAVEKDRRRMKANQIRRAVKRHSQVSGGRRSGGRNNNG | 5.43

Challenge: Would you mind telling me what total protein half-life in vivo value was observed for MTQYSSLLRGLAAGSAFLFLFAPTAFAAEQTVEAPSVDARAWILMDYASGKVLAEGNADEKLDPASLTKIMTSYVVGQALKADKIKLTDMVTVGKDAWATGNPALRGSSVMFLKPGDQVSVADLNKGVIIQSGNDACIALADYVAGSQESFIGLMNGYAKKLGLTNTTFQTVHGLDAPGQFSTARDMALLGKALIHDVPEEYAIHKEKEFTFNKIRQPNRNRLLWSSNLNVDGMKTGTTAGAGYNLVASATQGDMRLISVVLGAKTDRIRFNESEKLLTWGFRFFETVTPIKPDATFVTQRVWFGDKSEVNLGAGEAGSVTIPRGQLKNLKASYTLTEPQLTAPLKKGQVVGTIDFQLNGKSIEQRPLIVMENVEEGGFFGRVWDFVMMKFHQWFGSWFS ?
Response given: 5.96

* * *

- TEST_DETAILS: total protein half-life in vivo (active degradation + dilution); higher = more stable protein
- CONDITION_SET: wild type E. coli NCM3722; growth: P-lim chemostat; doubling time 12 h
QUANTITY_NAME: total protein half-life in vivo (h)
Express your answer in h, writing the number without its unit.

Challenge: Would you mind telling me what total protein half-life in vivo value was observed for MGFKCGIVGLPNVGKSTLFNALTKAGIEAANFPFCTIEPNTGVVPMPDPRLDQLAEIVKPQRTLPTTMEFVDIAGLVKGASKGEGLGNQFLTNIRETEAIGHVVRCFENDNIIHVSGKVNPADDIEVINTELALADLDTCERAIHRVQKKAKGGDKDAKAELAVLEKCLPQLENAGMLRALDLSAEEKAAIRYLSFLTLKPTMYIANVNEDGFENNPYLDQVREIAAKEGSVVVPVCAAVEADIAELDDEERDEFMQELGLEEPGLNRVIRAGYKLLNLQTYFTAGVKEVRAWTIPVGATAPQAAGKIHTDFEKGFIRAQTISFEDFITYKGEQGAKEAGKMRAEGKDYIVKDGDVMNFLFNV [P0ABU2] ?
Response given: 9.68

Value source: the supplement of paper PMC11246515
